FYI, the data here is from ChEMBL document CHEMBL2424622.

Target: Dual specificity mitogen-activated protein kinase kinase 6 (Homo sapiens, UniProt P52564)
Sequence (P52564 whole entry): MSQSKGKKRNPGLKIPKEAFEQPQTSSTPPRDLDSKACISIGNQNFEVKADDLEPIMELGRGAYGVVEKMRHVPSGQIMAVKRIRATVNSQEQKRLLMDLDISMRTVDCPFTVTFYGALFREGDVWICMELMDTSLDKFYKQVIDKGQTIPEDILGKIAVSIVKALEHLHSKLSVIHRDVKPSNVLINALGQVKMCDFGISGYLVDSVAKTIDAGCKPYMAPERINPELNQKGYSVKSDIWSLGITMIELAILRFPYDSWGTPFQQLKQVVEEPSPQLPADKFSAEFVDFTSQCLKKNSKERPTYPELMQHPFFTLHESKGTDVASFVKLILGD
Test: Binding affinity to MEK6 (unknown origin)
Parameter: Kd (µM)
Answer with a number only, understood to be in µM.

I am curious: what Kd value has been reported for CS(=O)(=O)CCCOc1cccc2c1ccn2-c1ccnc(N[C@H]2CC[C@H](C(=O)N3CCC(O)CC3)CC2)n1 ?
0.31

---

Biological target: UniProtKB Q96D53
Sequence (Q96D53 whole entry): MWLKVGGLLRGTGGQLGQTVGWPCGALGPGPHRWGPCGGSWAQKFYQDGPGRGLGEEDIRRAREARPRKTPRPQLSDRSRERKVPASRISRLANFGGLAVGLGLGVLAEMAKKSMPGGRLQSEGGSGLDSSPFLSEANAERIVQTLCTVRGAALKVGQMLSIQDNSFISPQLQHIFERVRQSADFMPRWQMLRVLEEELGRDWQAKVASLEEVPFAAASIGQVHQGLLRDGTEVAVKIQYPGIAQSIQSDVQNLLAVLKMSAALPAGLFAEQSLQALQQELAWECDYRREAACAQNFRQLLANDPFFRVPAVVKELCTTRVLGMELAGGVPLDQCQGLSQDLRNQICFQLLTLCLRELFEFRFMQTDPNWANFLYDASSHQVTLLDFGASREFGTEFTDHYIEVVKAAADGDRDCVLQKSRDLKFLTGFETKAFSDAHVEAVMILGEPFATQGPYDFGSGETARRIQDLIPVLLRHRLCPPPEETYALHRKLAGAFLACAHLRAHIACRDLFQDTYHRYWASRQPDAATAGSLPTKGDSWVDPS
Test: Competitive binding affinity to ADCK4 (unknown origin) at 10 uM in presence of ATP relative to control
Answer each item with its documented inhibition.

I would be grateful if you could share the reported inhibition for O[C@H]1CC[C@H](Nc2nccc(-n3ncc4ccccc43)n2)CC1 .
79%

Record request: inhibition value, item O[C@H]1CC[C@H](Nc2nccc(-n3ccc4ccccc43)n2)CC1
76%

Would you mind telling me what inhibition value was observed for O[C@H]1CC[C@H](Nc2nccc(-n3nnc4ccccc43)n2)CC1 ?
70%

I am curious: what inhibition value has been reported for O[C@H]1CC[C@H](Nc2nccc(-c3n[nH]c4ccccc34)n2)CC1 ?
74%

Requested field: inhibition. Item: CS(=O)(=O)CCCOc1cccc2c1ccn2-c1ccnc(N[C@H]2CC[C@H](C(=O)N3CCC(O)CC3)CC2)n1
> 85%

---

Assay: Oral bioavailability in Hanover-Wistar rat at 20 mg/kg
Assay type: ADME, organism-based
Conditions: in vivo
Parameter: bioavailability (%)
Use % as the unit, but write only the number.

Given the molecule CS(=O)(=O)CCCOc1cccc2c1ccn2-c1ccnc(N[C@H]2CC[C@H](C(=O)N3CCC(O)CC3)CC2)n1 , what is its reported bioavailability?
13

---

Provide the reported inhibition of each item.
Molecular target: UniProt:P29320
Sequence (P29320 whole entry): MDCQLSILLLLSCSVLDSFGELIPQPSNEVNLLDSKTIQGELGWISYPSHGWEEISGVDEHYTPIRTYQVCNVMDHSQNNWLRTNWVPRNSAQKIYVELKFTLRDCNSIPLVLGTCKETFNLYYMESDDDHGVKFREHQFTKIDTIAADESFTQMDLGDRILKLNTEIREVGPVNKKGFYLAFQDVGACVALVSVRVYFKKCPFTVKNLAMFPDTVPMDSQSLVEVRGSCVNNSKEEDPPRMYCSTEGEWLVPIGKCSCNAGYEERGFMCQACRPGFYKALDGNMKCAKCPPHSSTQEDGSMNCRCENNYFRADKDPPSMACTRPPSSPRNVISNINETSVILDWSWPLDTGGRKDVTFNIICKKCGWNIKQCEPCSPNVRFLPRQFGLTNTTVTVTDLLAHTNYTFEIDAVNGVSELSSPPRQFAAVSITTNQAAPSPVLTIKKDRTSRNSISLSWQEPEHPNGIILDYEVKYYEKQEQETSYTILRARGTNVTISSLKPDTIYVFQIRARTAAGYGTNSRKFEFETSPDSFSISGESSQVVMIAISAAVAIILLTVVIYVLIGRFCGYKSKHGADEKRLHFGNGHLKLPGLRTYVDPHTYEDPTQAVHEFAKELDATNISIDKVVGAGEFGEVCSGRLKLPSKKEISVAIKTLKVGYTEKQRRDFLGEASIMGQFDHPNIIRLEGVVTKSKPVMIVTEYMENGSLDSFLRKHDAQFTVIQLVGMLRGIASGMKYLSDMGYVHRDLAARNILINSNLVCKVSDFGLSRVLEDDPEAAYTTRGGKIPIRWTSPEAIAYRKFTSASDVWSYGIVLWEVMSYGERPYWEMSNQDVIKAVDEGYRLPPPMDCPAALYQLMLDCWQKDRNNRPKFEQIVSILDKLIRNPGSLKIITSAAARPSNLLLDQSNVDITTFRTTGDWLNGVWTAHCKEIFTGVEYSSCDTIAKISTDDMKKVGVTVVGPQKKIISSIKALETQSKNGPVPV
Assay: Competitive binding affinity to EPHA3 (unknown origin) at 10 uM in presence of ATP relative to control

For O[C@H]1CC[C@H](Nc2nccc(-n3nnc4ccccc43)n2)CC1 , what is its reported inhibition?
< 50%

# get_value(readout='inhibition', item= N[C@H]1CC[C@H](Nc2nccc(-n3nnc4ccccc43)n2)CC1 )
82%

Entry O[C@H]1CC[C@H](Nc2nccc(-c3n[nH]c4ccccc34)n2)CC1 has what inhibition?
93%

Endpoint output: inhibition of O[C@H]1CC[C@H](Nc2nccc(-n3ncc4ccccc43)n2)CC1 . Value?
< 50%

Quick check: inhibition of O=C([C@H]1CC[C@H](Nc2nccc(-n3nnc4ccccc43)n2)CC1)N1CCOCC1 ?
< 50%

# get_value(readout='inhibition', item= O[C@H]1CC[C@H](Nc2nccc(-n3ccc4ccccc43)n2)CC1 )
< 50%

---

Biological target: Cyclin-dependent kinase 11B (Homo sapiens)
Sequence (P21127 whole entry): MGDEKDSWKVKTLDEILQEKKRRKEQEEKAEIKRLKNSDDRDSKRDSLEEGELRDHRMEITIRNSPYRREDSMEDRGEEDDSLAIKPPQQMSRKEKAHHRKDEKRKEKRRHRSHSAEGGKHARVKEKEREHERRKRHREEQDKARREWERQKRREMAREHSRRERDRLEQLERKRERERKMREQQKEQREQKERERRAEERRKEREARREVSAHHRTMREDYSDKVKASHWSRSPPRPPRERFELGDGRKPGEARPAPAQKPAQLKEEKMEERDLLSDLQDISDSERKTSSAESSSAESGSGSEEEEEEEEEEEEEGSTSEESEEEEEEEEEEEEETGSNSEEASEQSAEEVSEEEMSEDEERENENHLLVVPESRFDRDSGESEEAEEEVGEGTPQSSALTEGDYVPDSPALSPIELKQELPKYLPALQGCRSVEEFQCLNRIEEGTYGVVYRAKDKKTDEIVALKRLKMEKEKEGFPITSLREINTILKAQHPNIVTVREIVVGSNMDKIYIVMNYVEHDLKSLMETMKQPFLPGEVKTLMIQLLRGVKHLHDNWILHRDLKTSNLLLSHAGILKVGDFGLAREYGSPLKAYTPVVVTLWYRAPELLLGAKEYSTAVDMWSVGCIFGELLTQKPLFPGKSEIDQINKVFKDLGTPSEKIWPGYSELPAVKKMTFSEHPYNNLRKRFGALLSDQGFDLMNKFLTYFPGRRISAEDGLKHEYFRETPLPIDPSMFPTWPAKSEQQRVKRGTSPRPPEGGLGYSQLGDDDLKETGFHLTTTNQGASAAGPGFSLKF
Assay: Competitive binding affinity to CDC2L1 (unknown origin) at 10 uM in presence of ATP relative to control
Parameter: inhibition (%)
Give the value in % but do not write % after it.

Checklist item: inhibition tested on Cyclin-dependent kinase 11B (Homo sapiens), entry O[C@H]1CC[C@H](Nc2nccc(-n3ccc4ccccc43)n2)CC1 , value?
97

What reported inhibition corresponds to O[C@H]1CC[C@H](Nc2nccc(-n3ncc4ccccc43)n2)CC1 on Cyclin-dependent kinase 11B (Homo sapiens)?
97

Checklist item: inhibition tested on Cyclin-dependent kinase 11B (Homo sapiens), entry O[C@H]1CC[C@H](Nc2nccc(-n3nnc4ccccc43)n2)CC1 , value?
100

---

Molecular target: Mitogen-activated protein kinase 3 (Homo sapiens)
Sequence (P27361 whole entry): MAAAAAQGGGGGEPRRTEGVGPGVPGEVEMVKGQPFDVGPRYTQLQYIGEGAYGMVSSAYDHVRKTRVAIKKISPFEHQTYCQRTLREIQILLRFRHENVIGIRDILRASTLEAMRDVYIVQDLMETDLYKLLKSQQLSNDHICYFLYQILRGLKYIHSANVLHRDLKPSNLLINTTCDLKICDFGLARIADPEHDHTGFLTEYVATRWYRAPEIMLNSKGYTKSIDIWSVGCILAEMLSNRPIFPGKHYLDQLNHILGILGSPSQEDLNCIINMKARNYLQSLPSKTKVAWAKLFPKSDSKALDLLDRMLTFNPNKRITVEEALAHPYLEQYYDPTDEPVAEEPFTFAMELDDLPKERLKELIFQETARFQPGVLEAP
Assay: Competitive binding affinity to ERK1 (unknown origin) at 10 uM in presence of ATP relative to control
Please provide measured inhibition for the entries that follow.

Using the record for O[C@H]1CC[C@H](Nc2nccc(-c3n[nH]c4ccccc34)n2)CC1 , report its inhibition.
80%

For the molecule shown here, O[C@H]1CC[C@H](Nc2nccc(-n3ccc4ccccc43)n2)CC1 , give the reported inhibition.
< 50%

Fill in the blank: the reported inhibition of O[C@H]1CC[C@H](Nc2nccc(-n3ncc4ccccc43)n2)CC1 is ____.
< 50%

# get_value(readout='inhibition', item= CS(=O)(=O)CCCOc1cccc2c1ccn2-c1ccnc(N[C@H]2CC[C@H](C(=O)N3CCC(O)CC3)CC2)n1 )
> 85%

Look up inhibition: O[C@H]1CC[C@H](Nc2nccc(-n3nnc4ccccc43)n2)CC1
< 50%
